Biological target: POS-1 (Caenorhabditis elegans) binding to mex-3 RNA
Assay: C. elegans POS-1 RNA interaction disruptors – biochemical, fluorescence polarization, cherry-picked samples, set 2, counter-screen for MEX-5 RNA-binding inhibitor project, dose response (AID 493130);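 also: POS-1 as maltose binding protein fusion made in E. coli with FITC RNA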
Details: POS-1/mex-3 RNA fluorescence polarization, 1 h
Results filed as inconclusive are left out. Activity calls are given as the source filed them.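 The calls were made as follows: active = signal-lowering compounds whose fitted half-maximal concentration is at most ten times their highest tested dose; inconclusive = flat fit between -30 and -70%, or poor fit; inactive = flat within 30%, signal rising, or potency beyond limit.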
Outcomes: active, inactive

* CN1CC=C2C(C#N)=C(N)C(C#N)(C#N)[C@H](c3ccoc3)[C@H]2C1 | active
* C#CCN1C(=O)S/C(=C\c2cc3c(cc2OC)OCO3)C1=O | active
* COc1ccc(NC(=S)NNc2ccc(S(=O)(=O)Nc3ccccc3C(=O)O)cc2[N+](=O)[O-])cc1 | active
* O=C(N/N=C/c1c(O)n(C2CC2)c(=S)[nH]c1=O)c1ccccc1O | active
* CCCCCCc1cc2cc(C(=O)NC)c(=N)oc2cc1O | active
* Cc1ccc(C)n1-c1ccccc1N | active
* COc1ccc(NC(=O)c2cccc(-c3ccc(O)cc3)c2)cn1 | active
* O=C1C(Cl)=C(NC(=O)c2ccccc2)C(=O)C(Cl)=C1NC(=O)c1ccccc1 | active
* O=C(O)c1ccc(Cl)c2c1C1C=CCC1C(c1ccccn1)N2 (configuration not stated) | active
* O=C1c2ccccc2C(=O)N1/N=C/c1ccc(O)c(O)c1O | active
* COc1ccc(-c2onc3ccc(C(C)=O)cc23)cc1 | active
* COc1ccc(/C(O)=C/c2nc3ccccc3n(-c3ccccc3)c2=O)cc1 | active
* CCN1/C(=C2\SC(=S)N(Cc3ccccc3)C2=O)Sc2ccccc21 | active
* O=c1[nH]c(-[n+]2ccccc2)c(/C=N/NC([S-])=Nc2ccccc2)s1 | active
* Cn1c(=O)c(Nc2ccc(Cl)cc2)c2c3c(cccc31)C(=O)c1ccccc1-2 | active
* Cc1c2ccccc2nc2c(F)c(NCCO)c(F)c(F)c12 | active
* COC(=O)c1cc2c(-c3ccccc3)c(C)c3ccccn3c-2c1C(=O)OC | inactive
* O=C(c1ccc(Cl)cc1)C1C2C(=O)N(c3ccccc3)C(=O)C2C2CCCN21 (configuration not stated) | active
* CCN(CC)c1ccc(/C=C(/C#N)c2nc3ccc(C)cc3[nH]2)c(OC(C)C)c1 | active
* CCCCN1C(=O)C2Cc3c([nH]c4ccccc34)CN2C1=S (configuration not stated) | active
* Brc1ccc(C2=CC(c3cccs3)n3ncnc3N2)cc1 (configuration not stated) | active
* Cc1occc1C(=O)N/N=C/C1=C(N2CCOCC2)C(=C\c2ccc(Cl)cc2Cl)/CC1 | active

---

Target: POS-1 (Caenorhabditis elegans) binding to mex-3 RNA
Experiment: C. elegans POS-1 RNA interaction disruptors – biochemical, fluorescence polarization, cherry-picked samples, set 2, counter-screen for MEX-5 RNA-binding inhibitor project, dose response (AID 493130);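 also: POS-1 as maltose binding protein fusion made in E. coli with FITC RNA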
Settings: POS-1/mex-3 RNA fluorescence polarization, 1 h; at 10 µM (top of the series)
Inconclusive results are not listed. Activity calls are given as the source filed them.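 Rule for the calls: active = signal-lowering compounds whose fitted half-maximal concentration is at most ten times their highest tested dose; inconclusive = flat fit between -30 and -70%, or poor fit; inactive = flat within 30%, signal rising, or potency beyond limit.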
reported_property: activity change, negative = inhibition

* CCOC(=O)NC(=O)/C(C#N)=C\Nc1sccc1C(=O)OC | inactive
* CCOc1ccc(/C=N/n2c(C)nc3ccccc3c2=O)cc1 | inactive
* CN1CCc2c(sc(NC(=O)C3CCCN3S(=O)(=O)c3ccc(Cl)s3)c2C(N)=O)C1 (stereo not given) | inactive
* Cn1ncc2c(NNC(=O)c3ccccc3Cl)ncnc21 | inactive
* CCC(=O)NCCc1nc2ccccc2n1Cc1ccccc1 | inactive
* COC(=O)c1ccc(-c2ccc(C(c3c(C)[nH][nH]c3=O)c3c(C)[nH][nH]c3=O)o2)cc1 | inactive
* CCn1c(C)nc2c1C(=O)c1ccccc1C2=O | inactive
* Cn1c(=O)n(C)c2cc(/C=N/N=C3/NC(=O)C(CC(=O)O)S3)ccc21 (stereo not given) | inactive
* COc1ccc(C2NC(=O)N(CCCC(=O)O)C(C)=C2C(=O)OCc2ccccc2)cc1 (stereo not given) | inactive
* COc1ccc(N(C(=O)CCl)C(C)(C(=O)Nc2c(C)cccc2C)c2ccccn2)cc1 (stereo not given) | inactive

---

Target: POS-1 (Caenorhabditis elegans) binding to mex-3 RNA
Experiment: C. elegans POS-1 RNA interaction disruptors – biochemical, fluorescence polarization, cherry-picked samples, set 2, counter-screen for MEX-5 RNA-binding inhibitor project, dose response (AID 493130);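 also: POS-1 as maltose binding protein fusion made in E. coli with FITC RNA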
Conditions: POS-1/mex-3 RNA fluorescence polarization, 1 h; at 10 µM (top of the series)
Results filed as inconclusive are left out. Active and inactive are the calls of the source.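 How the source made its calls: active means signal-lowering compounds whose fitted half-maximal concentration is at most ten times their highest tested dose; inconclusive means flat fit between -30 and -70%, or poor fit; inactive means flat within 30%, signal rising, or potency beyond limit.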
reported_property: activity change, negative = inhibition

• CCOC(=O)Cc1csc(NC(=O)c2sc3nc4ccc(CC)cc4cc3c2N)n1 = inactive
• Cc1ccc(C(=O)N/C(=C\c2ccc(-c3ccc([N+](=O)[O-])cc3)o2)C(=O)NC2CCS(=O)(=O)C2)cc1 (stereo not given) = inactive
• NC1=NC(=O)/C(=C\c2ccc(O)c([N+](=O)[O-])c2)S1 = inactive
• Cc1ccc(-c2nc(C=Nc3cccc(C)c3)c(O)o2)cc1 = inactive
• COc1ccccc1CN1CC(C(=O)NCCN(C)CCc2ccccc2)CCC1=O (stereo not given) = inactive
• C=CCn1c(O)c(N=NC(=S)Nc2cccc(C)c2)c2ccccc21 = inactive
• COc1ccc2nc3ccccc3nc2c1NC(=O)c1ccc(Cl)cc1 = inactive
• O=C(CSc1nnc(COc2ccccc2)o1)Nc1nccs1 = inactive
• CN(C)CC(O)COc1ccc(C(C)(C)c2ccc(OCC(O)CN(C)C)cc2)cc1 (stereo not given) = inactive
• COc1ccc(C[C@@H]2c3cc(O)c(OC)cc3CCN2C)cc1O = inactive

---

Target: POS-1 (Caenorhabditis elegans) binding to mex-3 RNA
Assay: C. elegans POS-1 RNA interaction disruptors – biochemical, fluorescence polarization, cherry-picked samples, set 2, counter-screen for MEX-5 RNA-binding inhibitor project, dose response (AID 493130);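 also: POS-1 as maltose binding protein fusion made in E. coli with FITC RNA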
Conditions: POS-1/mex-3 RNA fluorescence polarization, 1 h
Results filed as inconclusive are left out. The source made the active and inactive calls.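 The calls were made as follows: active = signal-lowering compounds whose fitted half-maximal concentration is at most ten times their highest tested dose; inconclusive = flat fit between -30 and -70%, or poor fit; inactive = flat within 30%, signal rising, or potency beyond limit.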
AC50 values, listed per item
reported_property: AC50

* CC(=O)Nc1ccc(N2C(=O)c3cccc4c(O)ccc(c34)C2=O)cc1 | 1.41 µM
* CN1CC=C2C(C#N)=C(N)C(C#N)(C#N)[C@H](c3cccs3)[C@H]2C1 | 6.12 µM
* Cc1ccc(-c2cc(C(=O)Nc3ccc(S(=O)(=O)Nc4ncccn4)cc3)[nH]n2)c(O)c1C | 5.29 µM
* N#CC1(C#N)C(c2ccccc2)OC23CCCCC2C1(C#N)C(=N)O3 (stereo unspecified) | 4.61 µM
* COc1ccccc1C(=O)Oc1ccc2c(c1)O/C(=C\c1ccncc1)C2=O | 3.41 µM
* Cc1cccc(N2C(=O)NC(=O)/C(=C/c3cc4c(cc3[N+](=O)[O-])OCO4)C2=O)c1 | 2.94 µM
* NS(=O)(=O)c1ccc(N=Nc2c(=O)[nH]n3c(=O)c4c([nH]c23)CCCC4)cc1 | 0.251 µM
* O=C(O[C@@H]1OC2COC(=O)c3cc(O)c(O)c(O)c3-c3c(cc(O)c(O)c3O)C(=O)O[C@@H]([C@H]1O)[C@@H]2O)c1cc(O)c(O)c(O)c1 | 2.27 µM
* CN1CCN(c2ccc([N+](=O)[O-])c3no[n+]([O-])c23)CC1 | 3.3 µM
* CN(C)[C@@H]1C(=O)C(C(N)=O)=C(O)[C@@]2(O)C(=O)C3=C(O)c4c(O)cccc4[C@@](C)(O)[C@H]3[C@H](O)[C@@H]12 | 4.07 µM
* Cn1c(=O)c2[nH]c(-c3ccccc3)c(O)c2n(C)c1=O | 2.27 µM
* CC1C(=O)NN=C1C(=O)N/N=C\c1ccc(O)cc1O (stereo unspecified) | 9.42 µM
* O=C1NC2=C(C(=O)CCC2)C(c2ccccc2[N+](=O)[O-])N1 (stereo unspecified) | > 10 µM (inactive)
* NS(=O)(=O)c1ccc(-c2ccc(C=C3C(=O)NC(=S)NC3=O)o2)cc1 | 8.28 µM
* CC1=C(C#N)C(=O)N(C2CCS(=O)(=O)C2)C(=O)/C1=C\c1ccco1 (stereo unspecified) | 3.66 µM
* O=C1CSC(=S)N1/N=C/c1cc(Br)c(O)c(Br)c1 | 10.2 µM
* Nc1c(C(=O)c2cccs2)sc2nsc(SCCN3CCCCC3)c12 | 6.39 µM
* O=C(NNC(=O)c1ccccc1O)c1ccc(S(=O)(=O)Nc2ccccc2)cc1 | 4.17 µM
* Cc1cc(C)c2c(c1)NC(C(=O)O)C1CC=CC21 (stereo unspecified) | 6.96 µM
* COc1ccc2c(c1)NP(=S)(Oc1ccccc1)N2 (stereo unspecified) | 6.91 µM
* C=CCn1c(=O)[nH]c2nc3cc(N=CN(C)C)c(C)cc3nc2c1=O | 7.27 µM
* COc1ccc(Cn2c(O)c(/C=N/NC(=O)c3ccccc3O)c(=O)[nH]c2=O)cc1 | 6.22 µM
* CC(=O)Nc1ccc(S(=O)(=O)NNC(=O)C(=O)NNc2ccccn2)cc1 | > 10 µM (inactive)
* Cc1cc(-c2csc(N)n2)c(C)n1C | 8.77 µM
* CCCCOc1ccc2c(c1)/C(=C(\C(Cl)=C(Cl)Cl)[N+](=O)[O-])N2 | 8.54 µM
* O=C(N/N=C/C1C(=O)NC(=S)N(c2ccccc2)C1=O)c1cc(Br)c(O)c(Br)c1 (stereo unspecified) | 7.64 µM
* CC1CCN(Cc2c(O)ccc3c2O/C(=C\c2ccco2)C3=O)CC1 | 3.53 µM
* CCNC(=S)N/N=C/c1sc(N2CCCCC2)nc1-c1cccs1 | 4.68 µM
* CC(=O)Nc1cccc(C2=CC(c3ccco3)n3ncnc3N2)c1 (stereo unspecified) | 5.81 µM
* CCN1CC=C2C(C#N)=C(N)C(C#N)(C#N)[C@H](c3ccoc3)[C@H]2C1 | 6.73 µM
* Cc1ccc(O)c(C(=O)c2cc(C#N)c(=O)n(-c3nccs3)c2)c1 | 4.09 µM
* O=C(O)C1Nc2c(Cl)cc(Cl)cc2C2C=CCC12 (stereo unspecified) | 5.13 µM
* Cc1cc(=O)n2[nH]c(=O)c(N=Nc3ccccc3)c2[nH]1 | 0.306 µM
* O=C(Nc1nc2c(s1)CN(Cc1ccccc1)CC2)c1cccc(S(=O)(=O)N2CCc3ccccc32)c1 | 7.79 µM
* CN1CC=C2C(C#N)=C(N)C(C#N)(C#N)C(Cc3ccccc3)C2C1 (stereo unspecified) | 6.58 µM
* Nc1ccc(N(CCO)CCO)cc1 | 6.49 µM
* O=[N+]([O-])c1ccccc1NC(=S)N/N=C/c1ccc(O)c(O)c1 | 5.42 µM
* O=c1[nH]n2c(=O)c3c([nH]c2c1N=Nc1ccccc1)CCC3 | 0.677 µM
* CC1CC(=O)c2c(cc3c(-c4c(O)cc(O)c5c(O)c6c(cc45)OC(C)CC6=O)c(O)cc(O)c3c2O)O1 (stereo unspecified) | 8.29 µM
* O=[N+]([O-])c1cc(/C=N\Nc2nccs2)ccc1O | 2.55 µM
* Cc1cc[n+](-c2[nH]c(=O)sc2/C=N/NC([S-])=Nc2ccccc2)cc1 | 2.39 µM

The origin of these recorded values is PubChem BioAssay AID493130.
